The following compounds are listed with their measured IC50 values.
molecular target: DGKα (Homo sapiens (Human), UniProt P23743); assay: Measurement of inhibitory effect against DGKα enzyme (ADP-Glo); type: biochemical; conditions: DGKα enzyme, ADP-Glo luminescence, OAG/ATP substrate, 20 min room temperature; read-out: IC50
Sequence (P23743 whole entry, species assumed): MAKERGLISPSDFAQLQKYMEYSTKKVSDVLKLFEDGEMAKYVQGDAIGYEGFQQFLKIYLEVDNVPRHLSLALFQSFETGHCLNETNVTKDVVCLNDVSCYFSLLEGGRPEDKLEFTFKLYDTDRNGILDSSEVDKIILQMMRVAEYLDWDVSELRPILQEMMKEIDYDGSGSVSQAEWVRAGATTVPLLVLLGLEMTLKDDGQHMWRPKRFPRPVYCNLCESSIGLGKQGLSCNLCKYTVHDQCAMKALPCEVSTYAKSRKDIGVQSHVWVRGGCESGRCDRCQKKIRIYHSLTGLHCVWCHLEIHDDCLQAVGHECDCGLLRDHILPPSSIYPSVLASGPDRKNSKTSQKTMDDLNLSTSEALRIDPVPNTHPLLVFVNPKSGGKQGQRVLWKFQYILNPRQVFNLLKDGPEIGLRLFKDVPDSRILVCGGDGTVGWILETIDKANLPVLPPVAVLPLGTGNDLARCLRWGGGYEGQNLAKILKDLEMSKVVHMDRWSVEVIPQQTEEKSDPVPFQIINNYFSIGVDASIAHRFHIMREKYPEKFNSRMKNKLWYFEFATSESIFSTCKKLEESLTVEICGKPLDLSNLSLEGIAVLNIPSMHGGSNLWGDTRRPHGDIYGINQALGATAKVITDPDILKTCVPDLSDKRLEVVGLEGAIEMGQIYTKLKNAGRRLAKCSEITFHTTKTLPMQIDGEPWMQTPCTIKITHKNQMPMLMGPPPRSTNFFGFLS

In [3]: df
Out[3]:
                           structure_string         reading
0  CC(=O)c1ccc2c(n1)n(C1CCN(Cc3ccc(OC(F)(F)F)cc3)CC1)c(=O)c(=O)n2C  300 to 5000 nM
1  Cn1c(=O)c(=O)n(C2CCN(Cc3ccc(OC(F)(F)F)cc3)CC2)c2nc(-c3ccccc3F)c(Cl)cc21        < 300 nM
2  Cc1ccc2c(n1)n(C1CCN(Cc3ccc(Oc4ccccc4)cc3)CC1)c(=O)c(=O)n2C        < 300 nM

What value of IC50 has been reported for the following compound? `Cn1c(=O)c(=O)n(C2CCN(Cc3cccc(Cl)c3)CC2)c2ncccc21`
< 300 nM

* * *

Target: DGKα (Homo sapiens (Human))
Experiment: Measurement of inhibitory effect against DGKα enzyme (ADP-Glo)
Assay type: biochemical
Settings: DGKα enzyme, ADP-Glo luminescence, OAG/ATP substrate, 20 min room temperature; read-out: IC50
Experimental: Experimental Example: Measurement of Inhibitory Effect Against DGKα Enzyme […] After preparing the above two solutions, a half-area opaque 96-well assay plate was prepared, and 10 μL of 3× diluted compound solution (30 μM to 0 μM) was transferred to each well. […] After this step, 30 μL of kinase detection reagent was added and mixed, and the plate was incubated at room temperature for an additional 20 minutes and luminescence was measured by Envision to calculate the IC50 value of each compound. […]
pIC50: −log10 of the molar value.
measurement.label: pIC50

Some solved cases for reference:
>>> print(df.to_string())
                                   compound       reading
0  Cn1c(=O)c(=O)n(C2CCN(Cc3ccc(OC(F)(F)F)cc3)CC2)c2ncc(C(=O)O)cc21 [Example 62]  5.30 to 6.52
1  COc1ccc2c(n1)n(C1CCN(Cc3ccc(OC(F)(F)F)cc3)CC1)c(=O)c(=O)n2C [Example 55]  5.30 to 6.52
2  Cn1c(=O)c(=O)n(C2CCN(Cc3ccc4c(c3)OCCO4)CC2)c2ncc(Cl)cc21 [Example 46]  5.30 to 6.52
3  CCn1c(=O)c(=O)n(C2CCN(Cc3ccc(OC(F)(F)F)cc3)CC2)c2ncccc21 [Example 3]  5.30 to 6.52
4  Cn1c(=O)c(=O)n(C2CCN(Cc3ccc(OC(F)(F)F)cc3)CC2(C)C)c2ncc(Cl)cc21 (stereo not shown) [Example 31]  5.30 to 6.52

What value of pIC50 has been reported for the following compound? Cn1c(=O)c(=O)n(C2CCN(Cc3ccc(OC(F)(F)F)cc3)CC2)c2ncc(C(N)=O)cc21 [Example 66]
> 6.52

* * *

The following compounds are listed with their measured pIC50 values.
biological target: DGKα (Homo sapiens (Human), UniProt P23743); experiment: Measurement of inhibitory effect against DGKα enzyme (ADP-Glo); type: biochemical; settings: DGKα enzyme, ADP-Glo luminescence, OAG/ATP substrate, 20 min room temperature; read-out: IC50
pIC50: −log10 of the molar value.

Some solved cases for reference:
                           structure_string       reading
0  Cc1ccc2c(n1)n(C1CCN(Cc3cccc(F)n3)CC1)c(=O)c(=O)n2C        < 5.30
1  Cn1c(=O)c(=O)n(C2CCN(Cc3ccc(OC(F)(F)F)cc3)CC2)c2nc(C#N)c(Br)cc21  5.30 to 6.52
2  Cc1ccc2c(n1)n(C1CCN(Cc3cc4ccccc4nc3Cl)CC1)c(=O)c(=O)n2C  5.30 to 6.52

What value of pIC50 has been reported for the following compound? `CC(C)Cn1c(=O)c(=O)n(C2CCN(Cc3ccc(OC(F)(F)F)cc3)CC2)c2ncccc21`
< 5.30

Another compound to check: `Cc1ccnc2c1n(C)c(=O)c(=O)n2C1CCN(Cc2ccc(OC(F)(F)F)cc2)CC1`
< 5.30

Another compound to check: `Cc1ccc2c(n1)n(C1CCN(Cc3ccc4c(ccn4C)c3)CC1)c(=O)c(=O)n2C`
5.30 to 6.52

Another compound to check: `Cn1c(=O)c(=O)n(C2CCN(Cc3cccc(Cl)c3)CC2)c2nc(C#N)ccc21`
5.30 to 6.52

Another compound to check: `Cc1ccc2c(n1)n(C1CCN(Cc3cccc(Oc4ccccc4)c3)CC1)c(=O)c(=O)n2C`
5.30 to 6.52

Another compound to check: `Cn1c(=O)c(=O)n(C2CCN(Cc3ccc(OC(F)(F)F)cc3)CC2)c2ncc(F)cc21`
5.30 to 6.52

Another compound to check: `Cn1c(=O)c(=O)n(C2CCN(Cc3ccc(OC(F)(F)F)cc3)CC2)c2nc(Cl)ccc21`
> 6.52
